Taken from paper PMC3880629.

Below: a set of entries, each annotated with reported α: binding cooperativity factor between CP55,940 and the tested allosteric modulator.
Biological target: CB1 wild-type receptor (Homo sapiens, UniProt P21554)
Sequence (P21554 whole entry): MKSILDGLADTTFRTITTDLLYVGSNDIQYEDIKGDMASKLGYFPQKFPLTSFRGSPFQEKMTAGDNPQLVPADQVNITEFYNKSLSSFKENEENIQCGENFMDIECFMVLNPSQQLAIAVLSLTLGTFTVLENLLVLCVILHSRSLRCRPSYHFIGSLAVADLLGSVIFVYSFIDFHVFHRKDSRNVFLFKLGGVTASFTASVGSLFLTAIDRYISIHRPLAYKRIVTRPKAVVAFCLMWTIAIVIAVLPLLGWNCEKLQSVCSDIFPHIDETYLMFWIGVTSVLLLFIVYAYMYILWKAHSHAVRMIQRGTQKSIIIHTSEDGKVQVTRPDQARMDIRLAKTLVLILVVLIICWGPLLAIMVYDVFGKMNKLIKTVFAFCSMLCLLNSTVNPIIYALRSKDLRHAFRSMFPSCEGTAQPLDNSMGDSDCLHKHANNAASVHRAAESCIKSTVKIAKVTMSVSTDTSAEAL
Type: binding
Details: HEK293 cell membranes expressing CB1; tracer [3H]CP55,940
Please give only the number in your answer, with no unit.

Solved cases (4 shown):
| compound | test target | test result |
| --- | --- | --- |
| CCCCCCCCCc1c(C(=O)NCCc2ccc(N3CCCCC3)cc2)[nH]c2ccc(Cl)cc12 [11f] | CB1 wild-type receptor (Homo sapiens, UniProt P21554) | 6.80 |
| CCCCCc1c(C(=O)NC(CO)Cc2ccc(N(C)C)cc2)[nH]c2ccc(Cl)cc12 (stereo not shown) [11k] | CB1 wild-type receptor (Homo sapiens, UniProt P21554) | 13.27 |
| CCCCCCCc1c(C(=O)NCCc2ccc(N3CCCCC3)cc2)[nH]c2ccc(Cl)cc12 [11e] | CB1 wild-type receptor (Homo sapiens, UniProt P21554) | 7.38 |
| O=C(NCCc1ccc(N2CCCCC2)cc1)c1[nH]c2ccc(Cl)cc2c1Cc1ccccc1 [11c] | CB1 wild-type receptor (Homo sapiens, UniProt P21554) | 11.37 |

Q. Identify the measured α: binding cooperativity factor between CP55,940 and the tested allosteric modulator of CCc1c(C(=O)NCCc2ccc(N(C)C)cc2)[nH]c2ccc(Cl)cc12 [11l] for CB1 wild-type receptor (Homo sapiens, UniProt P21554).
A. 19.68

Q. Identify the measured α: binding cooperativity factor between CP55,940 and the tested allosteric modulator of O=C(NCCc1ccc(N2CCCCC2)cc1)c1cc2cc(Cl)ccc2o1 [13a] for CB1 wild-type receptor (Homo sapiens, UniProt P21554).
A. 1.0

Q. Identify the measured α: binding cooperativity factor between CP55,940 and the tested allosteric modulator of O=C(NCCc1ccc(N2CCCCC2)cc1)c1[nH]c2ccc(Cl)cc2c1CC1CCCCC1 [11d] for CB1 wild-type receptor (Homo sapiens, UniProt P21554).
A. 9.84

---

Biological target: CB1 wild-type receptor (Homo sapiens)
Test: [35S]GTPγS binding assay
Format: biochemical
Settings: HEK293 cell membranes expressing CB1
readout label: Concentration giving complete inhibition of CP55,940-induced [35S]GTPγS binding

| compound | test result |
| --- | --- |
| CCCCCc1c(C(=O)NCCc2ccc(N(C)C)cc2)[nH]c2ccc(Cl)cc12 [11j] | 1 µM |
| CCCCCc1c(C(=O)NCCc2ccc(N3CCOCC3)cc2)[nH]c2ccc(Cl)cc12 [11h] | at least 10 μM |
| CCc1c(C(=O)NCCc2ccc(N3CCCCC3)cc2)oc2ccc(Cl)cc12 [13b] | at least 10 μM |
| CCCCCCCCCc1c(C(=O)NCCc2ccc(N3CCCCC3)cc2)[nH]c2ccc(Cl)cc12 [11f] | at least 10 μM |

---

Biological target: CB1 wild-type receptor (Homo sapiens)
Type: binding
Settings: HEK293 cell membranes expressing CB1; tracer [3H]CP55,940
Below: a set of entries, each annotated with reported α: binding cooperativity factor between CP55,940 and the tested allosteric modulator.
Please give only the number in your answer, with no unit.

Solved cases (3 shown):
| compound | test result |
| --- | --- |
| CCCCCc1c(C(=O)NCCc2ccc(Oc3ccccc3)cc2)[nH]c2ccc(Cl)cc12 [11i] | 13.15 |
| CN(C)c1ccc(CCNC(=O)c2cc3cc(Cl)ccc3o2)cc1 [13d] | 1.0 |
| CCCCCc1c(C(=O)NCCc2ccc(N(C)C)cc2)[nH]c2ccc(Cl)cc12 [11j] | 16.55 |

Q. Need α: binding cooperativity factor between CP55,940 and the tested allosteric modulator of O=C(NCCc1ccc(N2CCCCC2)cc1)c1[nH]c2ccc(Cl)cc2c1-c1ccccc1 [11b] , thanks.
A. 1.0

Q. Need α: binding cooperativity factor between CP55,940 and the tested allosteric modulator of CCc1c(C(=O)NCCc2ccc(N(C)C)cc2)oc2ccc(Cl)cc12 [13c] , thanks.
A. 11.59

---

Below: a set of entries, each annotated with reported α: binding cooperativity factor between CP55,940 and the tested allosteric modulator.
Molecular target: CB1 wild-type receptor (Homo sapiens)
Assay type: binding
Details: HEK293 cell membranes expressing CB1; tracer [3H]CP55,940
Please give only the number in your answer, with no unit.

Solved cases (2 shown):
| molecule | test result |
| --- | --- |
| CCc1c(C(=O)NCCc2ccc(N3CCCCC3)cc2)oc2ccc(Cl)cc12 [13b] | 18.04 |
| CCCCCc1c(C(=O)NCCc2ccc(N3CCOCC3)cc2)[nH]c2ccc(Cl)cc12 [11h] | 10.0 |

Q. Need α: binding cooperativity factor between CP55,940 and the tested allosteric modulator of CCCCCc1c(C(=O)NCc2ccc(N3CCCCC3)cc2)[nH]c2ccc(Cl)cc12 [11g] , thanks.
A. 1.0
